Quick reference: pIC50 of the listed items.
Target: T1, 14-3-3σ, full length, N-terminally His6-tagged (human, UniProt P31947 1-248)
T1 construct: 14-3-3 sigma (stratifin), human, full length; no tag cleavage is described for the full-length proteins; also called stratifin; SFN; source: E. coli BL21(DE3), purified (HisTrap, SEC)
T1 sequence (looked up): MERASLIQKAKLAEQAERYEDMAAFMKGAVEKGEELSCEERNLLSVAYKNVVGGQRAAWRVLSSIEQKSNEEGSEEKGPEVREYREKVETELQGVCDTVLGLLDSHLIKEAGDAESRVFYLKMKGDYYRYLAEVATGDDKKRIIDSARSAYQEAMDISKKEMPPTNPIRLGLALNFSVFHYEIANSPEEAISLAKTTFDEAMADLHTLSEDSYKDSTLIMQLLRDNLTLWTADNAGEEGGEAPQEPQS
Assay: fluorescence polarisation; competition: dilution series of acetylated peptide (starting concentration 4000 µM) added to a premixed complex of 14-3-3σ (3 µM) and FITC-labeled RAF1 tracer (30 nM); 10 mM HEPES pH 7.4, 150 mM NaCl, 2 mM DTT, 0.01% Tween 20; 25 °C
Conditions: both partners purified
pIC50: −log10 of the molar value. Where no end group is shown, it is not given here. [ ]: non-standard residue; d: D form. pS = N[C@@H](COP(=O)(O)O)C(=O)O
metric-name: pIC50

INSERT INTO assay_data (binder, metric_name, result) VALUES
  ('Ac-NKNAN[pS]SPV (aminopeptidase N (APN, CD13), human, residues 38-46; also called acetylated peptide 1; label-free peptide 1; source: synthetic peptide (Fmoc SPPS, HPLC purified)) [acetylated (label-free, unlabeled) peptide 1, APN 38–46 pSer43]', 'pIC50', 4.73),
  ('Ac-RQRST[pS]TPN (source: synthetic peptide (Fmoc SPPS, HPLC purified)) [acetylated (unlabeled) RAF1 peptide]', 'pIC50', 4.87);

// provenance: paper PMC7939381
